- assayed_system: 5-lipoxygenase (Rattus norvegicus)
- Construct: endogenous in cells; host or cells: casein-elicited peritoneal polymorphonuclear leukocytes of male Sprague-Dawley rats
- Sequence (P12527 1-673): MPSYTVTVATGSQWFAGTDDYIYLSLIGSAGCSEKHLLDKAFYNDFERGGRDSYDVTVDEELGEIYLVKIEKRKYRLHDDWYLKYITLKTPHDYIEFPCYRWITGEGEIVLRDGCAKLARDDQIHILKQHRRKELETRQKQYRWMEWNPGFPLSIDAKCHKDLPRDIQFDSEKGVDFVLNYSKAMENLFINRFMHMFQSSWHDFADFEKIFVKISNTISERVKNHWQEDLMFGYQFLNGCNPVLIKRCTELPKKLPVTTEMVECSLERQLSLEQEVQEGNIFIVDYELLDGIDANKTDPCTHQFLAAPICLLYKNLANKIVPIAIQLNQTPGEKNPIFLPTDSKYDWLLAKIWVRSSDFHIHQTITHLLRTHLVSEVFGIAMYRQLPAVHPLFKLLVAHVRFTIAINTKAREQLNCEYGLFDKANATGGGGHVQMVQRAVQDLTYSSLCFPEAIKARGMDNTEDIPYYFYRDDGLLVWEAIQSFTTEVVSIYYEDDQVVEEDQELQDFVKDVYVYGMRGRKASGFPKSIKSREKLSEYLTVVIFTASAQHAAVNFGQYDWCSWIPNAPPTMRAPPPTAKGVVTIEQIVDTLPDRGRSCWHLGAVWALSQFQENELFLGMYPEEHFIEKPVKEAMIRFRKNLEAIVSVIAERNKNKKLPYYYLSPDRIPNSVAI
- assay_procedure: PMN5LO assay: inhibition of LTB4 production in A23187-stimulated rat peritoneal PMN (RIA)
- Format: cell-based
- assay_conditions: 0.012 μg/ml
experimental_readout: PMN5LO % inhibition (%)

compound: COc1ccc(-c2sc(-c3ccccc3)cc2OC(C)=O)cc1
unit_of_measure: %
observed: 12

(P) Oc1cc(-c2ccccc2)sc1-c1ccccc1 [Compound 4, 3-Hydroxy-2,5-diphenylthiophene]
(Q) CC(=O)Oc1cc(-c2ccccc2)sc1-c1ccccc1
(R) COc1ccc(-c2sc3c(c2OC(C)=O)Cc2ccccc2-3)cc1
Inquiry: # rank_down: sort by PMN5LO % inhibition, max first Give the order by naming the labels one after another as requested.
Reply text: Q, P, R
(Q: 38%, P: 11%, R: 0%)

----------
- assayed_system: 5-lipoxygenase (Rattus norvegicus)
- Construct: endogenous in cells; host or cells: casein-elicited peritoneal polymorphonuclear leukocytes of male Sprague-Dawley rats
- assay_procedure: PMN5LO assay: inhibition of LTB4 production in A23187-stimulated rat peritoneal PMN (RIA)
- Type: cell-based
- assay_conditions: 1 μg/ml
experimental_readout: inhibition at 1 µg/mL (%)

(A) CC(=O)Oc1c(C)sc(-c2ccccc2)c1-c1ccccc1
(B) Cc1ccccc1-c1cc(O)c(-c2ccccc2)s1
Inquiry: Pick one: A or B . Which has the bigger inhibition at 1 µg/mL number? Bench note: the answer is the label of the chosen record.
Reply text: B
(B: 96%, A: 13%)

(a) CC(=O)Oc1cc(-c2ccccc2)sc1-c1ccccc1C
(b) c1ccc(-c2ccc(-c3ccccc3)s2)cc1
Inquiry: // task: argmin of inhibition at 1 µg/mL over [ a , b ] Bench note: the answer is the label of the chosen record.
Reply text: b

(I) COc1ccc(-c2sc3c(c2OC(C)=O)CCCC3)cc1
(II) COc1cc(-c2ccccc2)sc1-c1ccccc1
Inquiry: Pick one: I or II . Which has the bigger inhibition at 1 µg/mL number? Bench note: the answer is the label of the chosen record.
Reply text: I

Where these numbers come from: patent US4999436A
